Data origin, for the record: patent US8735584B2

- SYSTEM: AurA (Homo sapiens, UniProt O14965)
- Construct: purchased Caliper Life Sciences
- ASSAY_COMMENT: Desktop Profiler kinase panel, AurA
- Assay type: biochemical
- RUN_CONDITIONS: 10 micromolar concentration of the compound; read-out: Percent Inhibition AurA
MEASURED_PROPERTY: inhibition at 10 µM

Sample answers from the record:
> print(dat)
                                   molecule  result.value
1  Clc1nc2nccc(Nc3ccccc3)c2c2ccccc12 [Example 139]     70 to 90%
2  NC(=O)c1ccc(Oc2ccc3c(=O)[nH]c4ncccc4c3c2)cc1 [Example 82]         > 90%
3  COCCNc1ccc2c(=O)[nH]c3ncccc3c2c1 [Example 27]     70 to 90%
4  O=c1[nH]c2nccc(Nc3ccccc3)c2c2ccccc12 [Example 95]     70 to 90%

Field inhibition at 10 µM (entry COc1ccccc1Nc1ccc2c(=O)[nH]c3ncccc3c2c1 [Example 30] ) reads > 90%

Field inhibition at 10 µM (entry Nc1ccnc2[nH]c(=O)c3ccccc3c12 [Example 141] ) reads 50 to 70%

Field inhibition at 10 µM (entry O=C(Nc1ccc(Nc2ccnc3[nH]c(=O)c4ccccc4c23)cc1)c1ccccc1 [Example 120] ) reads > 90%

----------
- SYSTEM: GST-Aurora A (Homo sapiens, UniProt O14965)
- Construct: N-terminal GST fusion with full length Aurora A (1-403 amino acids)
- Sequence (O14965 1-403): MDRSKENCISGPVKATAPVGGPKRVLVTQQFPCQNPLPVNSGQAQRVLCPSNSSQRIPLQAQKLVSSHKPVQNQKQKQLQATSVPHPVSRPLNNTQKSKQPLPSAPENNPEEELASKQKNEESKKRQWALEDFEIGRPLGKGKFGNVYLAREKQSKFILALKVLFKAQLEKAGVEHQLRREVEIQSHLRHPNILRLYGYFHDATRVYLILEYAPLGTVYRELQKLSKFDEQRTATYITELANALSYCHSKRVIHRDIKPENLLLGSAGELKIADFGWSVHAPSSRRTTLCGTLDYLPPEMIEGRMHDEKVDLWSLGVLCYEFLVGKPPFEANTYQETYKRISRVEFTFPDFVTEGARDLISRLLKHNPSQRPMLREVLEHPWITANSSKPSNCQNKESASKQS
- ASSAY_COMMENT: Aurora A IC50, Caliper LC3000 mobility shift assay
- RUN_CONDITIONS: LC3000 method; 15 uM ATP (the KM value); read-out: Aurora Kinase A Activity (IC50)
pIC50: −log10 of the molar value.
MEASURED_PROPERTY: pIC50

Sample answers from the record:
> print(dat)
                              smiles.string  result.value
1  NCCNC(=O)c1ccc2c(=O)[nH]c3nccc(Nc4ccc(NC(=O)c5ccccc5)cc4)c3c2c1        > 7.96
2  COc1ccc(Nc2ccc3c(=O)[nH]c4ncccc4c3c2)cc1        < 7.00
3  Cc1cc(Nc2ccnc3[nH]c(=O)c4ccccc4c23)ccc1NC(=O)c1ccccc1        < 7.00

// assay GST-Aurora A (Homo sapiens, UniProt O14965), entry O=C(Cc1ccccc1)Nc1ccc(Nc2ccnc3[nH]c(=O)c4ccccc4c23)cc1 , pIC50 value = 7.00 to 7.96

----------
- SYSTEM: GST-Aurora A (Homo sapiens)
- Construct: N-terminal GST fusion with full length Aurora A (1-403 amino acids)
- ASSAY_COMMENT: Aurora A IC50, Caliper LC3000 mobility shift assay
- RUN_CONDITIONS: LC3000 method; 15 uM ATP (the KM value); read-out: Aurora Kinase A Activity (IC50)
MEASURED_PROPERTY: IC50

Sample answers from the record:
> print(dat)
                              smiles.string     result.value
1  O=C(Cn1cc(Nc2ccnc3[nH]c(=O)c4ccccc4c23)cn1)Nc1ccc(C(F)(F)F)cc1         > 0.1 µM
2  Cn1ccnc1Sc1ccc(Nc2ccnc3[nH]c(=O)c4ccccc4c23)cc1Cl         > 0.1 µM
3  O=C(Cc1cc(Nc2ccnc3[nH]c(=O)c4ccccc4c23)n[nH]1)Nc1cccc(F)c1         > 0.1 µM
4     O=c1[nH]c2ncccc2c2cc(NCc3ccccc3)ccc12         > 0.1 µM
5  CN1CCN(CCNC(=O)c2ccc3c(=O)[nH]c4nccc(Nc5ccc(NC(=O)c6ccccc6)cc5)c4c3c2)CC1  0.011 to 0.1 µM
6  CN(C)CCN(C)Cc1ccc2c(=O)[nH]c3nccc(Nc4ccc(NC(=O)c5ccccc5)cc4)c3c2c1  0.011 to 0.1 µM
7  O=C(CN1CCC(Nc2ccnc3[nH]c(=O)c4ccccc4c23)CC1)NC1CCCCC1         > 0.1 µM

API: the following record is the query input.
// assay GST-Aurora A (Homo sapiens), entry O=C(Nc1ccc(Oc2ccnc3[nH]c(=O)c4ccccc4c23)c(F)c1)c1cc(Cl)cnc1Cl , IC50 value = > 0.1 µM

----------
- SYSTEM: GST-Aurora A (Homo sapiens, UniProt O14965)
- Construct: N-terminal GST fusion with full length Aurora A (1-403 amino acids)
- ASSAY_COMMENT: Aurora A IC50, Caliper LC3000 mobility shift assay
- RUN_CONDITIONS: LC3000 method; 15 uM ATP (the KM value); read-out: Aurora Kinase A Activity (IC50)
pIC50: −log10 of the molar value.
Below is a list of entries, each paired with its recorded pIC50 value.

Sample answers from the record:
> print(dat)
                                   molecule  result.value
1  O=C(Nc1ccc(Nc2ccnc3[nH]c(=O)c4ccccc4c23)cc1)c1ccc(C(F)(F)F)cc1F [Compound 397]        > 7.96
2  O=C(CN1CCC(Nc2ccnc3[nH]c(=O)c4ccccc4c23)CC1)Nc1ccccn1 [Compound 483]        < 7.00
3  O=C(Nc1ccc(Nc2ccnc3[nH]c(=O)c4ccccc4c23)cc1)c1cccc2c1OCC2 [Compound 433]  7.00 to 7.96
4  O=C(Nc1ccc(Nc2ccnc3[nH]c(=O)c4c(C(=O)O)cccc4c23)cc1)c1ccc(F)cc1C(F)(F)F [Compound 439]        > 7.96
5  O=C(Nc1ccc(Nc2ccnc3[nH]c(=O)c4c(C(=O)NCCO)cccc4c23)cc1)c1ccccc1 [Compound 438]        > 7.96

// assay GST-Aurora A (Homo sapiens, UniProt O14965), entry O=C(Nc1ccc(Nc2ccnc3[nH]c(=O)c4c(O)cccc4c23)cc1)c1ccccc1 [Compound 446] , pIC50 value = 7.00 to 7.96

// assay GST-Aurora A (Homo sapiens, UniProt O14965), entry O=C(O)c1ccc2c(c1)c(=O)[nH]c1nccc(Nc3ccc(NC(=O)c4ccccc4)cc3)c12 [Compound 268] , pIC50 value = > 7.96

// assay GST-Aurora A (Homo sapiens, UniProt O14965), entry CC(NC(=O)CN1CCC(Nc2ccnc3[nH]c(=O)c4ccccc4c23)CC1)c1ccccc1 (stereo not drawn) [Compound 288] , pIC50 value = < 7.00

// assay GST-Aurora A (Homo sapiens, UniProt O14965), entry CCN(CCO)Cc1ccc2c(c1)c(=O)[nH]c1nccc(Nc3ccc(NC(=O)c4ccccc4)cc3)c12 [Compound 274] , pIC50 value = 7.00 to 7.96

// assay GST-Aurora A (Homo sapiens, UniProt O14965), entry O=C(O)c1ccc2c(=O)[nH]c3nccc(Nc4ccc(NC(=O)c5ccccc5)cc4)c3c2c1 [Compound 281] , pIC50 value = > 7.96

// assay GST-Aurora A (Homo sapiens, UniProt O14965), entry O=C(Nc1ccc(Nc2ccnc3[nH]c(=O)c4ccccc4c23)cc1)c1cccc(C(F)(F)F)c1F [Compound 387] , pIC50 value = > 7.96

// assay GST-Aurora A (Homo sapiens, UniProt O14965), entry CCOC(=O)c1cccc2c1c(=O)[nH]c1nccc(Nc3ccc(NC(=O)c4ccccc4)cc3)c12 [Compound 423] , pIC50 value = > 7.96

// assay GST-Aurora A (Homo sapiens, UniProt O14965), entry O=C(Nc1ccc(Nc2ccnc3[nH]c(=O)c4ccccc4c23)cc1)c1cccc(F)c1 [Compound 381] , pIC50 value = > 7.96

// assay GST-Aurora A (Homo sapiens, UniProt O14965), entry O=C(Nc1ccc(Nc2ccnc3[nH]c(=O)c4ccccc4c23)cc1)C(F)c1ccccc1 (stereo not drawn) [Compound 505] , pIC50 value = 7.00 to 7.96

// assay GST-Aurora A (Homo sapiens, UniProt O14965), entry CN(C)CCNC(=O)c1cccc2c1c(=O)[nH]c1nccc(Nc3ccc(NC(=O)c4ccccc4)cc3)c12 [Compound 435] , pIC50 value = > 7.96
